Kindly find below IC50 information for Proto-oncogene tyrosine-protein kinase Src (Homo sapiens) taken from the literature.
Give bare numbers, in nM.

Report IC50 for each item below.
1. COc1ccc(CCCC(=O)NCc2c[nH]c3nc(N)[nH]c(=O)c23)cc1OC
2. COc1cc(Nc2cc(Oc3ccc(NC(=O)Nc4cc(C(C)(C)C)cc(NS(C)(=O)=O)c4OC)c4ccccc34)ccn2)ccc1C(=O)N(C)CCCN1CCS(=O)(=O)CC1
3. COc1cc(Nc2cc(Oc3ccc(NC(=O)Nc4cc(C(C)(C)C)cc(NS(C)(=O)=O)c4OC)c4ccccc34)ccn2)ccc1C(=O)N(C)CCCN1CC[S+]([O-])CC1
4. COc1ccccc1-c1cc2cnc(N)nc2nc1NC(=O)NC(C)(C)C
5. Cc1cc(C)c(-c2cc3cnc(N)nc3nc2NC(=O)NC(C)(C)C)c(C)c1

Result:
[21000, 20, 17, 10400, 360]

----------
Kindly find below pIC50 information for Proto-oncogene tyrosine-protein kinase Src (Homo sapiens, UniProt P12931) taken from the literature.
pIC50: −log10 of the molar value.
Respond with T for pIC50 values of 7 and above, F for values below.

Reference set, count: 5
{"COMPOUND": "CCOc1cc(OCC)cc(-c2cc3cnc(N)nc3nc2NC(=O)NC(C)(C)C)c1", "CAT": "F"}
{"COMPOUND": "N[C@@H](CCCN=CC1C(=O)Nc2ccccc21)C(=O)O (stereo partly specified)", "CAT": "F"}
{"COMPOUND": "CCOc1cccc(-c2cc3cnc(N)nc3nc2NC(=O)NC(C)(C)C)c1", "CAT": "F"}
{"COMPOUND": "CC(C)(C)NC(=O)Nc1nc2nc(N)ncc2cc1-c1c(F)cccc1F", "CAT": "F"}
{"COMPOUND": "CC(C)(C)NC(=O)Nc1nc2nc(N)ncc2cc1-c1c(Br)cccc1Br", "CAT": "F"}

Ask: Entry "Cc1c(C)c(C)c(-c2cc3cnc(N)nc3nc2NC(=O)NC(C)(C)C)c(C)c1C" : is its pIC50 no less than 7?
Result: F

Ask: Entry "COc1cc(Nc2c(C#N)cnc3cc(-c4ccc(CN5CCSCC5)s4)ccc23)c(Cl)cc1Cl" : is its pIC50 no less than 7?
Result: T

----------
Kindly find below IC50 information for Proto-oncogene tyrosine-protein kinase Src (Homo sapiens) taken from the literature.

Worked examples, 10 compounds total:
{"COMPOUND": "CC(C)(C)NC(=O)Nc1nc2nc(N)ncc2cc1-c1ccccc1", "IC50": "19.3 µM"}
{"COMPOUND": "Cc1ccc(NC(=O)c2cccc(C(F)(F)F)c2)cc1-c1ccc2nc(Nc3ccc(OCCN)cc3)ncc2c1", "IC50": "< 0.002 µM"}
{"COMPOUND": "COc1cc(Nc2c(C#N)cnc3cc(-c4ccc(CN5CCC(O)CC5)s4)ccc23)c(Cl)cc1Cl", "IC50": "0.002 µM"}
{"COMPOUND": "N[C@@H](CCCCN=CC1C(=O)Nc2ccc(Br)cc21)C(=O)O (some centres undefined)", "IC50": "> 10 µM"}
{"COMPOUND": "COc1ccc(-c2cc3cnc(N)nc3nc2NC(=O)NC(C)(C)C)cc1", "IC50": "> 50 µM"}
{"COMPOUND": "COc1cccc(CNC(=O)[C@H](Cc2ccccc2)NC(=O)COc2cc3[n+]4c(c2)C(=O)[O][Cu]4([OH])[O]C3=O)c1", "IC50": "17 µM"}
{"COMPOUND": "CC(C)(C)NC(=O)Nc1nc2nc(N)ncc2cc1-c1cccc(Cl)c1Cl", "IC50": "4.41 µM"}
{"COMPOUND": "COc1cc(Nc2c(C#N)cnc3cc(-c4ccc(CN5CCCCC5)s4)ccc23)c(Cl)cc1Cl", "IC50": "0.0042 µM"}
{"COMPOUND": "CN(C)c1cc(-c2cc3cnc(N)nc3nc2NC(=O)NC(C)(C)C)cc(N(C)C)c1", "IC50": "> 50 µM"}
{"COMPOUND": "COc1ccc(Cl)c(Nc2ncnc3cc(OCC4CCN(C)CC4)c(OC)cc23)c1", "IC50": "0.01 µM"}

Report IC50 for each item below.
1. COc1cc2c(Nc3cc(OC)c(OC)c(OC)c3)c(C#N)cnc2cc1/C=C/c1cc[n+]([O-])cc1
2. COc1ccc(-c2cc3cnc(N)nc3nc2NC(=O)NC(C)(C)C)cc1OC
3. N[C@@H](CCCCN=CC1C(=O)Nc2ccccc21)C(=O)O (some centres undefined)
4. Cc1ccc(C(=O)NCc2c[nH]c3nc(N)[nH]c(=O)c23)s1

Result:
["0.011 µM", "> 50 µM", "> 10 µM", "16 µM"]
